target: V1 Receptor Subtype in Human Platelet (Homo sapiens); construct: tissue Hudson Valley Blood Services, Westchester Medical Center, Valhalla, N.Y; host or cells: human platelets (frozen platelet rich plasma); assay: Binding to Vasopressin V1 receptor subtype in Human Platelet Membranes; details: human platelet membranes;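 also: reported value is IC50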
Sequence (P37288 whole entry): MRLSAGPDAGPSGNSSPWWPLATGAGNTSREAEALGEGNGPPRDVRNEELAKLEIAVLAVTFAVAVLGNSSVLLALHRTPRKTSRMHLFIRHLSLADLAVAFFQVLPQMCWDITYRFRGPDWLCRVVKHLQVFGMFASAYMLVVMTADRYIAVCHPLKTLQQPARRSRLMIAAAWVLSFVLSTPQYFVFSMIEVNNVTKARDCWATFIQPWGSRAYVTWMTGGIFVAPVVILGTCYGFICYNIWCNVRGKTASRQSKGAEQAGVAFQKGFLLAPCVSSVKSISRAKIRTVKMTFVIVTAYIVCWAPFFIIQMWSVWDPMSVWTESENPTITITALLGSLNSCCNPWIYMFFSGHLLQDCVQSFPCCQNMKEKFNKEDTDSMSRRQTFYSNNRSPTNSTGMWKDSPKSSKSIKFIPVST
measuredQuantity: IC50 (nM)

{"compound": "Cc1ccc(C)c(C(=O)Nc2ccc(C(=O)N3Cc4cccn4Cc4ccccc43)c(Cl)c2)c1 [Example 701]", "measuredQuantity": "IC50", "recordedMeasurement": 340}
{"compound": "O=Cc1cccn1CC(=O)Nc1ccc(C(=O)N2Cc3cccn3Cc3ccccc32)cc1 [Example 685]", "measuredQuantity": "IC50", "recordedMeasurement": 61}
{"compound": "O=C(Nc1ccc(C(=O)N2Cc3cccn3Cc3sccc32)cc1)c1ccc(Cl)cc1Cl [Example 274]", "measuredQuantity": "IC50", "recordedMeasurement": 240}

(a) Cc1ccc(F)cc1C(=O)Nc1ccc(C(=O)N2CCc3cccn3-c3ccccc32)c(Cl)c1 [Example 612]
(b) Cc1ccc(F)cc1C(=O)Nc1ccc(C(=O)N2Cc3ccnn3Cc3ccccc32)c(Cl)c1 [Example 518]
(c) O=C(Nc1ccc(C(=O)N2Cc3ccnn3Cc3ccccc32)c(Cl)c1)c1ccc(Cl)cc1Cl [Example 520]
(d) O=C(Nc1ccc(C(=O)N2Cc3cccn3Cc3ccccc32)cc1)c1ccc(F)cc1C(F)(F)F [Example 693]
(e) O=C(Nc1ccc(C(=O)N2Cc3cccn3Cc3ccccc32)c(Cl)c1)c1ccc(C(F)(F)F)cc1F [Example 696]
Order the 5 compounds from highest to lowest IC50. Give your ranking as a list of the labels in the requested order.
e, a, c, b, d

###

system: Vasopressin V1; experiment: Vasopressin V1 Antagonist Activity in Conscious Rats (vasopressin vasopressor response); assay type: in vivo, rat; settings: 10 mg/kg i.v., VAS 0.02 i.u./kg, 30 min, SHR
Reported values of % Inhibition for individual entries
Reply with just the number (in %).

Example entries and their recorded answers appear below.
{"testSmiles": "CCOc1ccccc1C(=O)Nc1ccc(C(=O)N2Cc3cccn3Cc3ccccc32)cc1", "recordedMeasurement": 76}
{"testSmiles": "O=C(Nc1ccc(C(=O)N2Cc3cccn3Cc3ccccc32)cc1)c1ccc(Cl)cc1Cl", "recordedMeasurement": 62}
{"testSmiles": "O=C(Nc1ccc(C(=O)N2Cc3cccn3Cc3ccccc32)cc1)c1cccc(F)c1F", "recordedMeasurement": 85}
{"testSmiles": "Cc1ccccc1C(=O)Nc1ccc(C(=O)N2Cc3ccc(Cl)n3Cc3ccccc32)cc1", "recordedMeasurement": 53}

I'm curious: which % Inhibition was measured for "Cc1c(CC(=O)Nc2ccc(C(=O)N3Cc4cccn4Cc4ccccc43)cc2)sc2ccccc12" tested on Vasopressin V1?
14

What is its % Inhibition for Vasopressin V1? Entry: "O=C(Nc1ccc(C(=O)N2Cc3cccn3Cc3ccccc32)cc1)C1CCCCC1"
39

Item "O=C(Nc1ccc(C(=O)N2Cc3cccn3Cc3ccccc32)cc1)c1ccccc1C(F)(F)F" with Vasopressin V1 - % Inhibition?
88

Recorded % Inhibition for "COc1ccccc1C(=O)Nc1ccc(C(=O)N2Cc3cccn3Cc3ccccc32)cc1" with Vasopressin V1, please?
84

###

biological target: oxytocin receptors (Rattus norvegicus, UniProt P70536)
Sequence (P70536 whole entry): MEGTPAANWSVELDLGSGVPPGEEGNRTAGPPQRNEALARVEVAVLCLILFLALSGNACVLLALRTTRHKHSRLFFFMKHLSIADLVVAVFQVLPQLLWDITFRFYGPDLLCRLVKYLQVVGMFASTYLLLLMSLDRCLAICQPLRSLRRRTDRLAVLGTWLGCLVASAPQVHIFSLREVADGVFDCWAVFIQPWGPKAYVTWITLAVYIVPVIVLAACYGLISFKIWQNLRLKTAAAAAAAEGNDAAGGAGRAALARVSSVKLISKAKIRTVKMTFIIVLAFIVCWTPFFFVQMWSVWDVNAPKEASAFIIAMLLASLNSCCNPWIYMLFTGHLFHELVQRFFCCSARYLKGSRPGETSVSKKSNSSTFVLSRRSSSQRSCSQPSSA
pIC50: −log10 of the molar value.
measuredQuantity: pIC50

Solved entries:
{"compound": "CCOC(=O)c1ccc2n1Cc1ccccc1N(C(=O)c1ccc(NC(=O)c3ccc(Cl)cc3Cl)cc1)C2", "measuredQuantity": "pIC50", "recordedMeasurement": 5.40}
{"compound": "O=C(Nc1ccc(C(=O)N2Cc3ccc(Cn4ccnc4)n3Cc3ccccc32)cc1)c1ccc(Cl)cc1Cl", "measuredQuantity": "pIC50", "recordedMeasurement": 6.17}
{"compound": "Cc1cccc(C(=O)Nc2ccc(C(=O)N3Cc4cccn4Cc4ccccc43)c(Cl)c2)c1C", "measuredQuantity": "pIC50", "recordedMeasurement": 6.55}

(P) CSc1ccccc1C(=O)Nc1ccc(C(=O)N2Cc3cccn3Cc3ccccc32)cc1
(Q) Cc1c(F)cccc1C(=O)Nc1ccc(C(=O)N2Cc3cccn3Cc3ccccc32)cc1Cl
(R) Cc1ccccc1C(=O)Nc1ccc(C(=O)N2Cc3ccnn3Cc3ccccc32)cc1
(S) O=C(Nc1ccc(C(=O)N2Cc3cccn3Cc3ccccc32)cc1)C(O)c1ccccc1 (racemic)
(T) Cc1ccccc1CC(=O)Nc1ccc(C(=O)N2Cc3cccn3Cc3ccccc32)cc1
Could you please order the items by pIC50, going from the lowest number to the highest? # answer = labels listed in requested order
R, S, Q, P, T

(a) O=C(Nc1ccc(C(=O)N2Cc3cccn3Cc3sccc32)cc1)c1ccc(Cl)cc1Cl
(b) Cc1c(F)cccc1C(=O)Nc1ccc(C(=O)N2Cc3ccnn3Cc3ccccc32)cc1
(c) NC(=O)CNC(C(=O)Nc1ccc(C(=O)N2Cc3cccn3Cc3ccccc32)cc1)c1ccccc1 (stereo not shown)
(d) O=C(CCl)Nc1ccc(C(=O)N2Cc3cccn3Cc3ccccc32)cc1
(e) O=C(Nc1ccc(C(=O)N2Cc3ccc(CO)n3Cc3ccccc32)cc1)c1ccc(Cl)cc1Cl
Ordering: ascending pIC50. Please list the labels according to the requested order.
c, d, a, b, e

(P) O=C(Nc1ccc(C(=O)N2Cc3cccn3Cc3ccccc32)c(Cl)c1)c1c(Cl)cccc1Cl
(Q) O=C(Nc1ccc(C(=O)N2Cc3cccn3Cc3ccccc32)c(Cl)c1)c1ccccc1C(F)(F)F
(R) O=C(Nc1ccc(C(=O)N2Cc3cccn3Cc3ccccc32)cc1)C(Cl)c1ccccc1 (stereo not shown)
(S) O=C(Nc1ccc(C(=O)N2Cc3cccn3Cc3ccccc32)cc1)c1cc([N+](=O)[O-])ccc1Cl
Rank order required: pIC50, descending. Please list each label once, in the requested order.
S, P, Q, R

(P) O=C(Nc1ccc(C(=O)N2Cc3cccn3Cc3ccccc32)cc1)c1cc(Cl)ccc1Cl
(Q) Cc1cc(C(=O)N2Cc3cccn3Cc3ccccc32)ccc1NC(=O)c1ccccc1C
Hi! Which is lower in terms of pIC50, the first one P or the second one Q ? Mark your selection by writing its label.
Q
(Q: 5.92, P: 6.18)
